Where do the numbers come from? From ChEMBL document CHEMBL4130518.

# Tested on: A498
# assay summary: Antiproliferative activity against human A498 cells after 48 hrs by MTT assay
# Type: functional, cell-based
# assay setup: A498, 48 h
attribute measured: IC50 (µM)
// units = µM; emit number, no label

| compound | IC50 (µM) |
| --- | --- |
| C#Cc1cccc(Nc2ncnc3cc(OCCOC)c(OCCOC)cc23)c1 | 12.5 |
| CCN(CC)CCNC(=O)c1c(C)[nH]c(/C=C2\C(=O)Nc3ccc(F)cc32)c1C | 7.98 |

**Query** Bench note: what IC50 did COc1cc2nccc(Oc3ccc(NC(=O)C4(C(=O)Nc5ccc(F)cc5)CC4)cc3)c2cc1OC [CABOZANTINIB] show?
**Result** 8.46

**Query** Bench note: what IC50 did CC[C@H](C)[C@H]1C(=O)N2CCC[C@H]2C(=O)O[C@H](C(C)(C)C)C[C@@H](C)C[C@@H](O)C(C)(C)C2=N[C@H](CCC(=O)N[C@@H](Cc3ccc(OC)cc3)C(=O)N(C)[C@@H](C)C(=O)N1C)CS2 show?
**Result** 0.00335
